assayMethodText: AP1 Signaling Pathway (AID 357);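 also: ME-180 reporter cells stimulated with EGF at its EC50 level; % is scaled to controls: 0 for no effect and ±100 for the full control effect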
appliedConditions: ME-180 (cervical carcinoma) AP-1-bla reporter, EGF-induced, beta-lactamase ratio, 5 h; at 7.69 µM (top of the series) unless noted
Inconclusive results are not listed.
property: activity change, negative = inhibition (%)
Numbers only, in %.

>>> reportedresult("O=C(c1csnn1)N1CCC2(CC1)CCN(c1ncccn1)CC2")
-14.3
>>> reportedresult("Cn1c(=O)c(-c2cccs2)nc2cncnc21")
16
>>> reportedresult("O=c1c(-c2cc(F)cc(F)c2)nc2cnc(Nc3ccccc3)nc2n1C[C@H]1CCCO1")
-3.83

Take each entry in turn and give its activity change, negative = inhibition.
1. COc1cccc(-c2nc(N3CCN(C)CC3)c3ccccc3n2)c1
2. Cn1cccc1C(=O)N1CCC[C@@]2(CCN(Cc3cc(C(F)(F)F)cc(C(F)(F)F)c3)C2)C1
3. CC(=O)N1CCC2(CCN(Cc3ccncc3)CC2)CC1
4. COc1ccccc1CN1CC[C@@]2(CCCN(C(=O)c3cccn3C)C2)C1
5. COc1ccc(CNc2ncnc3ccc(-c4ccccc4CN(C)C)cc23)c(OC)c1

[11.5, 8.92, 5.96, -17, 7.23]

====

assayMethodText: qHTS for Inflammasome Signaling Inhibitors: IL-1-beta AlphaLISA screen against the NCATS CANVASS Library (AID 1347379);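 also: human THP-1 cells primed with LPS then triggered with ATP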;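 as to Potency: secreted IL-1B measured as AlphaLISA emission at 615 nm; potency is read from the fitted curve at half-maximal effect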
appliedConditions: THP-1 LPS/ATP, IL-1B AlphaLISA secretion, 16 h; series mostly up to 57.5 µM
Records with an inconclusive call do not appear. The source made the active and inactive calls. The call rests on the fitted dose curve; in most records, active means well fitted inhibition curve with a large enough effect; inconclusive means small, poorly fitted or top-dose-only effect; inactive means flat fitted curve, though single readings scatter.
property: Potency

>>> reportedresult("C/C=C1/CN2C3CC1C1C=CC(=O)N4c5ccccc5[C@@]3(C[C@@H]2C2=C[C@H]3C5CC6N(CC[C@@]67c6ccccc6N(C2=O)[C@@H]37)C/C5=C/C)[C@H]14 (stereo partly drawn)")
"12.2 µM (active)"
>>> reportedresult("C/C(=C\\[C@@H](C)CC/C=C/CC/C=C/C(=O)O)[C@H](O)[C@H](C)C(=O)CCCC1CC(=O)NC(=O)C1")
"inactive"
>>> reportedresult("COC12OC1(C13OC1(OC)C(=O)c1cc4cc(C)oc(=O)c4c(O)c1C3O)C(O)c1c(cc3cc(C)oc(=O)c3c1O)C2=O (stereo not drawn)")
"inactive"
>>> reportedresult("C=C1CC[C@@H](Br)C(C)(C)[C@]12CC=C(C)C(=O)C2")
"inactive"
>>> reportedresult("COc1ccc([C@@H]2c3cc4c(cc3C[C@H](C)C2C)OCO4)cc1OC (stereo partly drawn)")
"inactive"

Take each entry in turn and give its Potency.
1. COc1cc2c(c(O)c1O)C(=O)c1c(coc1C)C2=O
2. CN1CCc2cc3c(c4c2C1(C)C(=O)c1cc(O)ccc1-4)OCO3 (stereo not drawn)
3. C/C1=C/[C@@H](C)[C@H](O)[C@@H](O)/C=C/CC/C=C/C(=O)O[C@@H]1[C@H](C)C(=O)CCCC1CC(=O)NC(=O)C1

1. 24.3 µM (active)
2. inactive
3. inactive

====

assayMethodText: HEK-293 Cancer Cell Toxicity qHTS against the NCATS CANVASS Library (AID 1347355); also: nearly all actives have a fitted effect of over 65% in size; also: potency is read from the fitted curve at half-maximal effect
appliedConditions: HEK-293 viability, CellTiter-Glo luminescence, 72 h; series mostly up to 46.1 µM
Excerpt: Natural products and their derivatives continue to be wellsprings of nascent therapeutic potential. […] To address this issue, the Canvass library of natural products was assembled (https://tripod.nih.gov/canvass), in collaboration with academic and industry researchers, for quantitative high-throughput screening (qHTS) across a diverse set of cell-based and biochemical assays. […]
Inconclusive results are not listed. Calls of active or inactive are those of the source. Calls come from the whole dose curve; as a rule, active = well fitted cell-killing curve with a large enough effect; inconclusive = small, poorly fitted or top-dose-only effect; inactive = flat fitted curve, though single readings scatter.
property: Potency

Below, each entry is followed by its recorded Potency result.
>>> reportedresult("C=C[C@](Cl)(CBr)CCC=C(C)C")
"inactive"
>>> reportedresult("C/C=C(/C)c1cc(O)c(C)c2c1Oc1cc(O)cc(C)c1C(=O)O2")
"inactive"
>>> reportedresult("C/C(=C\\[C@H](C)C(=O)C[C@H](O)CC1CC(=O)NC(=O)C1)[C@@H]1OC(=O)CCCC/C=C/[C@@H](O)C[C@@H]1C")
"9.35 µM (active)"
>>> reportedresult("C=C1CC[C@@H](Br)C(C)(C)[C@]12CC=C(C)C(=O)C2")
"inactive"
>>> reportedresult("CO/C=C/C(=O)c1cc2cnc3c(N)cc(=NC(=O)C(C)C)c([nH]1)c23")
"0.166 µM (active)"
>>> reportedresult("C/C(=C\\[C@H](C)C(=O)/C=C/CC1CC(=O)NC(=O)C1)[C@@H]1OC(=O)/C=C/CC/C=C/C[C@@H](O)[C@@H]1C")
"3.72 µM (active)"

Take each entry in turn and give its Potency.
1. C=C(C)CC[C@H](Cc1c(O)cc(O)c2c1O[C@H](c1ccc(O)cc1)CC2=O)C(=C)C
2. CO[C@@H](C[C@@H](C)[C@@H](O)/C=C/C=C/CNC(=O)C(C)(C)[C@H](O)\C(C)=C/C=C\C=C\Cc1cnco1)[C@]1(O)[C@@H](C)C(=O)N(C)[C@@]12COC2=O

inactive
inactive
